- measured_target: full-length p47 (human, UniProt Q9UNZ2)
- Sequence (Q9UNZ2 whole entry): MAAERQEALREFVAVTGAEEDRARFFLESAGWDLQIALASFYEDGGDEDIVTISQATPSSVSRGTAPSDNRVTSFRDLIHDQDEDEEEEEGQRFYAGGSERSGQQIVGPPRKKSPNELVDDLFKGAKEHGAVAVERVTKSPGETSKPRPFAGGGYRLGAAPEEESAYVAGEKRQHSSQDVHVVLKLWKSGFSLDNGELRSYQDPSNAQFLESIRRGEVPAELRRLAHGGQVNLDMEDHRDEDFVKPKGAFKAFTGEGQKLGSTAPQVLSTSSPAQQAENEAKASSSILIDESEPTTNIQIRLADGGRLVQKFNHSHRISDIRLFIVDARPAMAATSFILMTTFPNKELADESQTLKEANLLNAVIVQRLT
- assay_procedure: SPR; competition: as for p47-UBX but with full-length p47 on immobilised p97 (Figure S7)
- condition_set: both partners purified

{"binder": "scFv-A06 (scFv, V domains shown) VH: QVQLVESGGGLVQPGGSLRLSCAASGFNISSYSMHWVRQAPGKGLEWVASISSSYGSTYYADSVKGRFTISADTSKNTAYLQMNSLRAEDTAVYYCARSDWYYGDAWGVPYYAFDYWGQGTLVTVSS VL: DIQMTQSPSSLSASVGDRVTITCRASQSVGSALAWYQQKPGKAPKLLIYSASSLYSGVPSRFSGSRSGTDFTLTISSLQPEDFATYYCQQSWFLITFGQGTKVEIK", "binding result": "binds"}
{"binder": "scFv-E04 (scFv, V domains shown) VH: QVQLVESGGGLVQPGGSLRLSCAASGFNFSSYSIHWVRQAPGKGLEWVASISPYYGSTYYADSVKGRFTISADTSKNTAYLQMNSLRAEDTAVYYCARYKYYMSGRYTWALDYWGQGTLVTVSS VL: DIQMTQSPSSLSASVGDRVTITCRASQSVSSAVAWYQQKPGKAPKLLIYSASSLYSGVPSRFSGSRSGTDFTLTISSLQPEDFATYYCQQEFFVPFTFGQGTKVEIK", "binding result": "binds"}
{"binder": "scFv-G08 (scFv, V domains shown) VH: QVQLVESGGGLVQPGGSLRLSCAASGFNISYSYIHWVRQAPGKGLEWVAYIYPYSGSTYYADSVKGRFTISADTSKNTAYLQMNSLRAEDTAVYYCARDPHWAMDYWGQGTLVTVSS VL: DIQMTQSPSSLSASVGDRVTITCRASQSVGSALAWYQQKPGKAPKLLIYSASSLYSGVPSRFSGSRSGTDFTLTISSLQPEDFATYYCQQSFSSVPFTFGQGTKVEIK", "binding result": "binds"}
